- assay.target: FAD-linked sulfhydryl oxidase ALR (Homo sapiens) (UniProt P55789)
- Sequence (P55789 whole entry, looked up): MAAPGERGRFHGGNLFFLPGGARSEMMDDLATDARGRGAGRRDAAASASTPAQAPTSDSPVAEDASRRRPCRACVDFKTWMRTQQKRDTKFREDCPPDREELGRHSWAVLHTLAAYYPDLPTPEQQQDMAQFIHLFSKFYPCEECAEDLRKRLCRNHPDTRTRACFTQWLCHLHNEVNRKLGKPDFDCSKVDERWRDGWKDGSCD
- assay.explanation: ALR-catalysed DTT oxidation blockers – biochemical, H2O2 detection, HRP-luminol luminescence, single point, primary screen (AID 485317)
- experimental.context: purified ALR, hits give high values, concentration not given here
About 11,000 (3.8%) of roughly 290,000 compounds were called active. The list comes from a sample in which actives are over-represented; it also holds close analogues and randomly drawn compounds.
property.measured: inhibition

Known results for molecules:
> print(dat)
                                   molecule             result
1    Cc1ccc(CNS(=O)(=O)CCNC(=O)c2ccccc2)cc1  0.449% (inactive)
2  CC(C)CC1(C)NC(=O)N(CC(=O)Nc2ccc3c(c2)OCCO3)C1=O (stereo not drawn)   4.51% (inactive)

Please examine the following record next.
Q: Which inhibition value is on record for `CCOC(=O)[C@H]1[C@H]2COc3ccc(C)cc3[C@@H]2N2C(=O)CN(Cc3ccc(F)cc3)C(=O)[C@@]12C` ?
Result: -13.6% (inactive)

---

- assay.target: FAD-linked sulfhydryl oxidase ALR (Homo sapiens) (UniProt P55789)
- assay.explanation: ALR-catalysed DTT oxidation blockers – biochemical, H2O2 detection, HRP-luminol luminescence, single point, primary screen (AID 485317)
- experimental.context: purified ALR, hits give high values, concentration not given here
Among all 290,000 compounds or so, about 11,000 (3.8%) were called active. Shown is part of a subset that was picked to be rich in actives.
property.measured: inhibition (%)
Express the result in % but write the number alone.

> print(dat)
                                   molecule  property.measured  measured.number
1  NC1=NC(c2ccc([N+](=O)[O-])cc2)N(c2ccc(F)cc2)C(N)=N1 (stereo not given)         inhibition            -1.48
2  CC(=O)c1c(OCC(=O)N(C)C2CCCCC2)ccc2c(C)cc(=O)oc12         inhibition            -4.49
3  COc1ccc(Br)cc1CN(C)C(=O)C1CC(=O)N(C2CCCC2)C1 (stereo not given)         inhibition            -9.84
4  Nc1c(C(=O)OCC(=O)Nc2ccc(OC(F)F)cc2)[nH]c(=O)[nH]c1=O         inhibition             9.56

Please examine the following record next.
Q: Give inhibition (FAD-linked sulfhydryl oxidase ALR (Homo sapiens) (UniProt P55789)) of the following molecule: `O=C(Nc1ccccc1-c1nc2ccccc2[nH]c1=O)c1cccs1`
Result: 1.37

---

- assay.target: FAD-linked sulfhydryl oxidase ALR (Homo sapiens) (UniProt P55789)
- assay.explanation: ALR-catalysed DTT oxidation blockers – biochemical, H2O2 detection, HRP-luminol luminescence, single point, primary screen (AID 485317)
- experimental.context: purified ALR, concentration not given here
In all, about 290,000 compounds went through this assay and about 11,000 (3.8%) were called active.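 Rule for the calls: active = mean replicate inhibition above about 79%, with every replicate also reaching it (limit read from the data); inconclusive = only one of the two criteria met; inactive = mean below limit and not every replicate reaching it.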 The sample as a whole holds a higher share of actives than the screen did.
Tick one outcome: yes (1) (active), no (0) (inactive)

Recorded results for 6 molecules are shown here.
> print(dat)
                                   molecule                              assay.target  class.name
1          Cc1cc(N/N=C/c2ccccc2F)c2ccccc2n1  FAD-linked sulfhydryl oxidase ALR (Homo sapiens) (UniProt P55789)     yes (1)
2  O=C(CSC1=Nc2ccccc2C2=NC(CC(=O)NCc3ccco3)C(=O)N12)NCc1ccco1 (stereo not given)  FAD-linked sulfhydryl oxidase ALR (Homo sapiens) (UniProt P55789)      no (0)
3     COc1ccc(C(=O)O)cc1S(=O)(=O)NCc1cccnc1  FAD-linked sulfhydryl oxidase ALR (Homo sapiens) (UniProt P55789)      no (0)
4  O=C(CSC1=Nc2ccccc2C2=NC(c3ccccc3)C(=O)N12)NCC1CCCO1 (stereo not given)  FAD-linked sulfhydryl oxidase ALR (Homo sapiens) (UniProt P55789)      no (0)
5  COc1ccc(-c2nc(CS(=O)(=O)CC(=O)NCc3cccc(Br)c3)c(C)o2)cc1  FAD-linked sulfhydryl oxidase ALR (Homo sapiens) (UniProt P55789)      no (0)
6  Cc1cc(NC(=O)OC(C)C)ccc1-c1ccc(NC(=O)OC(C)C)cc1C  FAD-linked sulfhydryl oxidase ALR (Homo sapiens) (UniProt P55789)     yes (1)

Q: Status in this test for COc1ccc(-c2nc(CS(=O)CC(=O)NCc3cccnc3)c(C)o2)cc1OC (stereo not given) ?
Result: yes (1)

Q: Status in this test for `Cc1cccc(C(=O)Nc2ccc3c(c2)C(=O)N(CC(C)C)C3=O)c1` ?
Result: no (0)

Q: Status in this test for `CN1CCC(N(C)S(=O)(=O)c2ccc(NC(=O)c3cccc(C#N)c3)cc2)CC1` ?
Result: no (0)

Q: Status in this test for `COc1ccc(CNC(=O)CNC(=O)c2sc3ccccc3c2Cl)cc1OC` ?
Result: no (0)

Q: Status in this test for `Cc1ccc(C(=O)Nc2ccc3c(c2)OCCO3)cc1S(=O)(=O)N1CCOCC1` ?
Result: no (0)

Q: Status in this test for `Cc1ccc2nc(C)cc(N/N=C/c3ccc(F)cc3)c2c1` ?
Result: no (0)

Q: Status in this test for `COc1ccc(C(=O)NCc2ccccc2C)cc1S(=O)(=O)NC1CCCC1` ?
Result: no (0)

Q: Status in this test for `CCCCN(CC)CCCNC(=O)CS(=O)(=O)Cc1nc(-c2cccc(OC)c2)oc1C` ?
Result: yes (1)

Q: Status in this test for `O=C(Nc1cccc(S(=O)(=O)N2CCCCC2)c1)c1cncc(Br)c1` ?
Result: no (0)

---

Items are presented alongside their recorded inhibition.
- assay.target: FAD-linked sulfhydryl oxidase ALR (Homo sapiens) (UniProt P55789)
- assay.explanation: ALR-catalysed DTT oxidation blockers – biochemical, H2O2 detection, HRP-luminol luminescence, single point, primary screen (AID 485317)
- experimental.context: purified ALR, hits give high values, concentration not given here
The campaign covered roughly 290,000 compounds. About 11,000 (3.8%) were called active. Shown is part of a subset that was picked to be rich in actives.
Express the result in % but write the number alone.

Known results for molecules:
> print(dat)
                         structure.notation  measured.number
1  Cc1ccc(-n2ncc3c(Nc4cccc(C(=O)O)c4)ncnc32)cc1               94
2  Cc1ccc(S(=O)(=O)Nc2nc(C)cc(-n3nc(C)cc3C)n2)cc1             7.83
3      O=C(NNc1ncnc2c1cnn2-c1ccccc1)c1ccco1            -5.39
4  COc1ccc(S(=O)(=O)Nc2c(C)n(C)n(-c3ccccc3)c2=O)cc1            -9.38
5  CCc1ccc(C(=O)NC(=S)Nc2ccccc2N2CCOCC2)cc1            -1.76
6  COc1ccc(-c2nnc(SCC(=O)Nc3cccnc3Cl)n2C)cc1            -3.14

Q: Which inhibition value is on record for `O=C(O[C@@H]1[C@H](Cc2ccccc2)NS(=O)(=O)[C@H]2C[C@@H]3C=C[C@]12O3)c1ccccc1Br` ?
Result: 6.25

---

Items are presented alongside their recorded inhibition.
- assay.target: FAD-linked sulfhydryl oxidase ALR (Homo sapiens)
- assay.explanation: ALR-catalysed DTT oxidation blockers – biochemical, H2O2 detection, HRP-luminol luminescence, single point, primary screen (AID 485317)
- experimental.context: purified ALR, hits give high values, concentration not given here
About 11,000 (3.8%) of roughly 290,000 compounds were called active. This is one part of a sample in which actives are shown more often than they occur.
Express the result in % but write the number alone.

Known results for compounds:
> print(dat)
                                   compound  measured.number
1     O=c1[nH]c(-c2ccccc2)c(-c2ccccc2)[nH]1             98.6
2  CC1CN(C(=O)c2ccc([N+](=O)[O-])s2)CC(C)O1 (configuration not stated)            -91.3
3      Cc1ccc(NC(=O)CSCC(=O)Nc2sccc2C#N)cc1             98.7
4  CCOc1ccc(OCC(=O)OC(C)C(=O)NC2CCCCC2C)cc1 (configuration not stated)            -1.89
5  Cc1ccc(NC(=O)Cc2nc(COC(=O)C(C)NS(=O)(=O)c3ccc(C)cc3)cs2)cc1 (configuration not stated)               14
6   O=C(Cn1c(=O)sc2ccccc21)Nc1nc2c(s1)CCCC2             42.4

Q: Give inhibition (FAD-linked sulfhydryl oxidase ALR (Homo sapiens)) of the following compound: `Cc1ccc(CNC(=O)c2cccc3c2C(=O)c2ccc(N4CCC(C)CC4)cc2S3(=O)=O)cc1`
Result: 3.52

Q: Give inhibition (FAD-linked sulfhydryl oxidase ALR (Homo sapiens)) of the following compound: `O=C1C=C(c2ccccc2)CCC1`
Result: 0.158

Q: Give inhibition (FAD-linked sulfhydryl oxidase ALR (Homo sapiens)) of the following compound: `Cc1cc(NC(=O)CSCc2nc(-c3cccc(Cl)c3)oc2C)no1`
Result: 96.6

Q: Give inhibition (FAD-linked sulfhydryl oxidase ALR (Homo sapiens)) of the following compound: COc1ccc(NC(=O)C2CCCN(S(=O)(=O)c3cccc4cccnc34)C2)cc1OC (configuration not stated)
Result: -28.5

Q: Give inhibition (FAD-linked sulfhydryl oxidase ALR (Homo sapiens)) of the following compound: `Cc1cccc(NC(=O)C2CCN(S(=O)(=O)c3cccc4cccnc34)CC2)c1`
Result: 88.1

Q: Give inhibition (FAD-linked sulfhydryl oxidase ALR (Homo sapiens)) of the following compound: CC1CCCCC1NC(=O)Cn1c(=O)cnc2ccccc21 (configuration not stated)
Result: -5.91
